# Experimental system: RORα LBD (Homo sapiens (Human))
# Sequence (P35398 272-510): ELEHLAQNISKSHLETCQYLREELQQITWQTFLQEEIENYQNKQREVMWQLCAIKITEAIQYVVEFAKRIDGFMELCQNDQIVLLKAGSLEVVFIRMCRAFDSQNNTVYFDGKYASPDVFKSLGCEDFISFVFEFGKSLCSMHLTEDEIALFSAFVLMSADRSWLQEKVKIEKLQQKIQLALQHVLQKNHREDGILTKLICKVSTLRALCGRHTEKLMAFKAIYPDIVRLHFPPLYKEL
# Assay name: TR-FRET co-activator D22 interaction with RORα LBD
# Type: biochemical
# Measurement parameters: 2 hr; co-activator recruitment (π); read-out: RORα EC50 D22 2 hr (demonstrates co-activator recruitment)
Metric: EC50

I am curious: what EC50 value has been reported for CNC(=O)c1ccc(CN2CCc3cc(NC(C)=O)ccc32)cc1 ?
< 30 µM

Alright, here's another compound for you.
I am curious: what EC50 value has been reported for CC(=O)Nc1ccc2c(c1)CCN2Cc1ccc(C(N)=O)cc1 ?
< 30 µM

----------
Reported pIC50 values follow for various compounds
# System: IL-17AF
# Assay name: TH17 cytokine inhibition as measured by ELISA: IL-17AF
# Type: cell-based
# Measurement parameters: 120 h; human TH17 cells, 5 days differentiation, ELISA of supernatant
pIC50: −log10 of the molar value.

I am curious: what pIC50 value has been reported for CC(=O)Nc1ccc2c(c1)CCN2Cc1ccc(C(O)(C(F)(F)F)C(F)(F)F)cc1 [Example 4] ?
> 5.00

I am curious: what pIC50 value has been reported for CC(=O)Nc1ccc2c(c1)CCCN2Cc1ccc(C(O)(C(F)(F)F)C(F)(F)F)cc1 [Example 2] ?
> 5.00

I am curious: what pIC50 value has been reported for CC(=O)Nc1ccc2c(c1)CCC(=O)N2Cc1ccc(C(O)(C(F)(F)F)C(F)(F)F)cc1 [Example 3] ?
< 5.00
